- Target System: Integration Host Factor (IHF) (Escherichia coli (purified from E. coli …, UniProt P0A6X7;P0A6Y1 1-99;1-94))
- Sequence (P0A6X7 whole entry, chain 1 of 2): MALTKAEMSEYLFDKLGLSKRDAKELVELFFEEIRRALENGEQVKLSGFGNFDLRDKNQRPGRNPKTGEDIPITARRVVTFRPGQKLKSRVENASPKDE
- Sequence (P0A6Y1 whole entry, chain 2 of 2): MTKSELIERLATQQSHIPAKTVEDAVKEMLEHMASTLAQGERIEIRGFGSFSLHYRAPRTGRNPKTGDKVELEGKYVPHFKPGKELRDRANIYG
- Protocol: fluorescence anisotropy; 1 mM Mg2+?; 5 mM Tris-HCl pH 7.4-7.6, 70 mM KCl, 0.1 mM EDTA, 0.5-10% ethylene glycol, fluorescence at 10 C; Mg buffer: 5 mM Tris-HCl pH 7.4, 1 mM MgCl2, 10% ethylene glycol; stopped flow 20 C with 0.01% NP-40
- Condition Set: protein: recombinant; copies: 1;1; label: none for EMSA (SYBR Green); 5' TAMRA for fluorescence intensity; donor-acceptor pair for stopped flow; four-way junction of 4 strands (20 nt), four 10 bp arms
Property Label: pKd
Numbers only, as −log10 of the molar value.

response.value for J20 junction (structured_DNA) DNA 1: CCACCGCTCAACTCAACTGC DNA 2: GCAGTTGAGTCCTTGCTAGG DNA 3: CCTAGCAAGGGGCTGCTACC DNA 4: GGTAGCAGCCTGAGCGGTGG (field: pKd) = 7.37
